tested on: heme oxygenase (HO-1) promoter; experiment: heme oxygenase (HO-1) luciferase reporter in the HepG2 cell line; settings: thirty percent induction over DMSO control is considered as active
readout-kind: expression of heme oxygenase promoter activity (in words)

[[record]]
compound = "COc1cc(C=CC(=O)CC(=O)C=Cc2ccc(O)c(OC)c2)ccc1O"
measured_on = "heme oxygenase (HO-1) promoter"
obs_value = "induced"

[[record]]
compound = "C[S+]([O-])CCCCN=C=S (stereo not drawn)"
measured_on = "heme oxygenase (HO-1) promoter"
obs_value = "induced"

[[record]]
compound = "CC1(C)CC[C@]2(C(=O)O)CC[C@]3(C)C(=CC[C@@H]4[C@@]5(C)CC[C@H](O)C(C)(C)[C@@H]5CC[C@]43C)[C@@H]2C1"
measured_on = "heme oxygenase (HO-1) promoter"
obs_value = "induced"

[[record]]
compound = "[Cl-].[Cl-].[Zn+2]"
measured_on = "heme oxygenase (HO-1) promoter"
obs_value = "induced"

[[record]]
compound = "O=c1oc2c(O)c3oc(=O)c4c5c(oc(=O)c6cc(O)c(O)c(O)c65)c(O)c5oc(=O)c(c2c2c(O)c(O)c(O)cc12)c3c54"
measured_on = "heme oxygenase (HO-1) promoter"
obs_value = "induced"

[[record]]
compound = "COc1cc(O)c(CC=C(C)C)c(O)c1C(=O)/C=C/c1ccc(O)cc1"
measured_on = "heme oxygenase (HO-1) promoter"
obs_value = "induced"

